- System: Escherichia coli
- PROTOCOL SUMMARY: Antimicrobial activity against Escherichia coli JM83 by serial dilution method
- Type: functional
Listing: MIC of selected compounds
QUANTITY: MIC

1) Cc1onc(-c2ccccc2)c1C(=O)N[C@@H]1C(=O)N2[C@@H]1SC(C)(C)[C@@H]2C(=O)O ... 2 µg/mL
2) CC1(C)S[C@@H]2[C@H](NC(=O)[C@H](N)c3ccccc3)C(=O)N2[C@H]1C(=O)O ... 4 µg/mL
3) O=C(Cc1cccs1)N[C@@H]1C(=O)N2C(C(=O)[O-])=C(C[n+]3ccccc3)CS[C@H]12 ... 2 µg/mL
4) CC(=O)OCC1=C(C(=O)O)N2C(=O)[C@@H](NC(=O)Cc3cccs3)[C@H]2SC1 ... 4 µg/mL
5) CC(C)(O/N=C(\C(=O)N[C@@H]1C(=O)N2C(C(=O)[O-])=C(C[n+]3ccccc3)CS[C@H]12)c1csc(N)n1)C(=O)O ... 0.3 µg/mL
